# Test system: ATP;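 further: ATP exposure 15 min at 22 °C before imaging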
# measurement description: switch fluorescence ratio, 500 uM ATP over buffer (Cy3 cluster intensity, sum of 5 cycles each) (fold (ratio)); higher = stronger signal-on switching upon ATP binding; sequences stand for … in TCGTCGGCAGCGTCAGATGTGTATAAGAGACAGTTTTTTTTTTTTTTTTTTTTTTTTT…TC
# assay conditions: aptamer strand: ATP DNA aptamer (quencher-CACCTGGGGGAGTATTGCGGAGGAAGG + anchor), 100 nM annealed; ATP concentration: 500 uM
metric: switch fluorescence ratio
Numbers only.

Batch of 3 sequences: report switch fluorescence ratio for each.
1. GGCGAGCTGG
2. GTTTTTAAGG
3. AGGCCCGTGT

Reply text:
1: 1; 2: 1.02; 3: 0.98

Respectfully, I request switch fluorescence ratio for each entry included below.
1. GGCGCCGGGC
2. CCATGGGTTG

Reply text:
1. 1.02
2. 1.01

---

# Test system: ATP;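 further: ATP exposure 15 min at 22 °C before imaging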
# measurement description: switch fluorescence ratio, 500 uM ATP over buffer (Cy3 cluster intensity, sum of 5 cycles each) (fold (ratio)); higher = stronger signal-on switching upon ATP binding; sequences stand for … in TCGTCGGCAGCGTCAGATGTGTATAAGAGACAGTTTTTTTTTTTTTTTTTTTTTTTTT…TC
# assay conditions: aptamer strand: ATP DNA aptamer (quencher-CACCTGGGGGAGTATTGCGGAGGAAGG + anchor), 100 nM annealed; ATP concentration: 500 uM
I'd appreciate it if you could supply switch fluorescence ratio values for the items below.
Numbers only.

Reference set, count: 5
sequence: TATTTAAAGT
system: ATP;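 further: ATP exposure 15 min at 22 °C before imaging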
switch fluorescence ratio: 1.02
--
sequence: TGGGCTCCGG
system: ATP;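 further: ATP exposure 15 min at 22 °C before imaging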
switch fluorescence ratio: 1
--
sequence: TGGGGGAATG
system: ATP;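 further: ATP exposure 15 min at 22 °C before imaging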
switch fluorescence ratio: 0.992
--
sequence: ACAGTTCTTG
system: ATP;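 further: ATP exposure 15 min at 22 °C before imaging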
switch fluorescence ratio: 0.997
--
sequence: TATAAACGGG
system: ATP;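 further: ATP exposure 15 min at 22 °C before imaging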
switch fluorescence ratio: 1

Hi, could you look up switch fluorescence ratio for each item in my list?
1. TGGGGTGATC
2. CTTAACATGC
3. AGGAGATGGG
4. TAGGTGACAA

Reply text:
1: 1; 2: 1.06; 3: 1.02; 4: 1

Give switch fluorescence ratio for each of the items listed below.
1. GCAGGAAGAC
2. ATAAGAACCG
3. CTTAGTACGG

Reply text:
3.48
1.07
1.01

Would you be so kind as to report switch fluorescence ratio for each listed record?
1. ATATGACTTT
2. CCAACATGAT
3. CGTACATGAG
4. TAATTTCTGG
5. GGTCATGGGG
6. CATATGGGGC
7. CTAATCATAA
8. CACTAAAGAT

Reply text:
1. 1.01
2. 1.02
3. 1.02
4. 0.99
5. 0.978
6. 1.05
7. 1
8. 1

---

# Tested on: ATP;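 further: ATP exposure 15 min at 22 °C before imaging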
# measurement description: switch fluorescence ratio, 500 uM ATP over buffer (Cy3 cluster intensity, sum of 5 cycles each) (fold (ratio)); higher = stronger signal-on switching upon ATP binding; sequences stand for … in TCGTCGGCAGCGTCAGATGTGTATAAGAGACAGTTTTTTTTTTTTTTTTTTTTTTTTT…TC
# assay conditions: aptamer strand: ATP DNA aptamer (quencher-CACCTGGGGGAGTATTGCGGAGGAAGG + anchor), 100 nM annealed; ATP concentration: 500 uM
metric: switch fluorescence ratio
Give bare numbers.

sequence: CTATCTGTAG
switch fluorescence ratio: 0.994

Could you report switch fluorescence ratio for every entry in the following list?
1. GGGGTCTTAT
2. CTTGTAAATT
3. CGTTGGGGAG

Reply text:
1: 0.996; 2: 0.983; 3: 1.02
